Please provide measured TGI for the entries that follow.
tested on: SNB-19 CNS; experiment: NCI tumour cell line growth inhibition, 48 h

Report TGI for `O=c1cc(-c2cccc(Br)c2)[nH]c2cc3c(cc12)OCO3` please.
10.3 µM

And the next one, CC(=O)OC1(C#N)CC2OC1C1NC21 (stereo unspecified) ?
> 100 µM

// next record `N#C/C=C\c1ccc(-c2cc(C(F)(F)F)cc(C(F)(F)F)c2)o1`
> 100 µM

Now consider `CC(=O)CC(=O)ON(C)C(=O)Cc1ccccc1` .
> 100 µM

And then `NS(=O)(=O)c1ccc(N=Nc2c(=O)[nH]c3ccc4[nH]cccc4c23)cc1` , what is it?
> 25 µM

Now try `Cc1c(C=C(C#N)C#N)c(=O)n(C)c(=O)n1C` .
> 100 µM

Proceed to `COc1ccc(/C=C/C(=O)/C=C(/C=C/c2ccc(OC)c(OC)c2OC)OB(F)F)c(OC)c1OC`
> 100 µM

Ok, now `C=C(C)COC(=O)COCC(=O)OCC(=C)C`
> 100 µM

Could you do the same for `O=C(O)CCCN=C(C(=NCCCC(=O)O)c1ccccc1)c1ccccc1` , please?
> 100 µM

Entry `COc1cc(OC)cc(Oc2nc3c(N)cc(C(F)(F)F)cc3nc2-c2ccccc2)c1` please
> 100 µM

How about COC1=CC(=O)C2C(C1=O)[C@@H]1c3ccccc3OC[C@H]21 (stereo partly specified) ?
> 100 µM
